Origin of values: patent US20150037339A1

# TARGET OR TEST SYSTEM: T1, Activin A (human, UniProt P08476 311-426)
# T1 construct: Homodimer of two βA subunits; bought from R&D Systems (#338-AC); also called inhibin-βA dimer; human Activin A
# T1 sequence: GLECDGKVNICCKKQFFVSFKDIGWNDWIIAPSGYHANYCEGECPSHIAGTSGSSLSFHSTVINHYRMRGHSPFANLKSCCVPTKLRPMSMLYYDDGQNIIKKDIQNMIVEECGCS
# TEST DETAILS: SPR, captured mAb, 25C
# Protocol: Antibody-antigen association was monitored for 240 seconds while dissociation in buffer was monitored for 600 seconds. Kinetic association and dissociation rate constants were determined by processing and fitting the data using Scrubber software version 2.0c. Binding equilibrium dissociation constants (KD) and dissociative half-lives (t_{1/2}) were then calculated from the kinetic rate constants as: KD (M)=kd/kₐ and t_{1/2} (min)=[ln 2/(60*kd)]. […]
# koff values compiled below
Respond numerically; units are s⁻¹ and should not be typed.

Sample answers from the record:
{"columns": ["BINDER", "UNITS LABEL", "RECORDED NUMBER"],
 "data": [
  ["H4H10426P (antibody, human IgG4, V domains shown) VH: EVQLVESGGNLVQSGRSLRLSCTASGFAFDDFAMHWVRQVPGKGLEWVSGISWNSDTIGYADSVKGRFTISRDNAQNSLFLQMDSLRAEDTALYYCVKDMVRGLIGYYYYGMDVWGQGTTVTVSS VL: EIVLTQSPAILSLSPGERAILSCRASQSIYTYLSWYQQTPGRAPRLLIYETSSRATGIPARFIGSGSGTDFTLTISSLEPEDFAFYYCQHRSDWPPTFGQGTKLEIK", "s⁻¹", 0.0007],
  ["H4H10430P (antibody, human IgG4, V domains shown, also called H4H1430P; H4H10430P2) VH: EVQLVESGGGLVQPGRSLRLSCKASGFAFDDFAMHWVRQAPGKGLEWVSGIVWNSGDIGYADSVKGRFTISRDNAKNSLYLQLNSLRTEDTALYFCVKDMVRGLMGFNYYGMDVWGQGTTVTVSS VL: EIVLTQSPATLSLSPGERATLSCRASQTISTYLVWYRQRPGQAPSLLIYDASNRATDIPARFSGSGSGTDFTLTISSLEPEDFAVYYCQQRSNWPITFGQGTRLEIK", "s⁻¹", 0.000167],
  ["H4H10424P (antibody, human IgG4, V domains shown) VH: QVQLVESGGGVVQPGRSLRLSCAASGFTFSSYGMHWVRQAPGKGLEWVAVIWYDGSNKYNADSVKGRFTISRDNSKNTVYLQMNSLRAEDTAVYYCARARNYDILTGYYNLGMDVWGQGTTVTVSS VL: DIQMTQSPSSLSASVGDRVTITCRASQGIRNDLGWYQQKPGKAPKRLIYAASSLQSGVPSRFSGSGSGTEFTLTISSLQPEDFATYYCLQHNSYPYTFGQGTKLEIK", "s⁻¹", 0.000719]
]}

Continue with the binder presented below.
What value of koff has been recorded for this entry: H4H10429P (antibody, human IgG4, V domains shown) VH: QVQLVESGGGVVQPGRSLRLSCVASGFTVSSYGIHWVRQAPGKGLEWVSVIWYDGRNKDYADSVKGRFTISRDNSKNTVYLEMKGLRAEDTALYYCARDKTGDFDSWGQGTLVTVSS VL: DIQMTQSPSSLSASVGDRVTITCRASQNINSFLSWYQQKPGKAPKFLIYDASSIQSGAPSRFSGSGSGTDFTLTISSLQPEDFATYYCQQSYSSPFTFGQGTKLEIK 6.39e-05
